Measured values drawn from PubChem BioAssay (NCI) for this set.

- Test system: SW-620 colon
- ASSAY_TEXT: NCI-60 one-dose screen, 48 h (100 = growth as untreated, 0 = no growth, -100 = all killed)
- EXPERIMENTAL_CONTEXT: 10 µM unless noted
The panel holds about 83,000 compounds, 20% with a hit somewhere; the sample as a whole holds those more often.
REPORTED_ENDPOINT: growth (%)
Report only the number, with the unit % understood.

Short answer for COc1ccc(NC(=O)[C@H](C)NC(=O)OC(C)(C)C)cc1C(=O)Nc1cccc(-c2cc(=O)c3c(OC)c(OC)c(OC)cc3o2)c1 : growth was -25.6

Short answer for CN(C)CCn1c2ccc(N)cc2c2nc3ccccc3nc21 : growth was 17.1

Short answer for COc1cc2c3c(n(CCCNC4CCC4)c(=O)c2cc1OC)-c1cc2c(cc1C3=O)OCO2 : growth was -15.4

Short answer for Cc1ccccc1NC1CC(=O)N(c2ccc(Cl)cc2Cl)C1=O (centres undefined) : growth was 96.2

Short answer for Cc1ccc(Cc2cnc(NC(=O)/C(C#N)=C/c3ccc(-c4ccc(Cl)cc4)o3)s2)cc1 : growth was 93.9

Short answer for COc1ccc2oc3c4[nH]c5ccccc5c4c4c(c3c2c1)C(=O)N(O)C4=O : growth was 92.1

Short answer for O=S(=O)(Nc1cc(Cl)c(F)c(Cl)c1)c1ccc(-c2cnc(C3CC3)o2)cc1 : growth was 23.8

Short answer for CCN1C/C(=N\S(=O)(=O)c2ccccc2)N(CC)C1=S : growth was 107

Short answer for CCn1c2ccc(/C=N/NS(=O)(=O)CCN(C)C)cc2c2cc(/C=N/NS(=O)(=O)CCN(C)C)ccc21 : growth was 90.8
